B1: MNAT1 (parent)
chain: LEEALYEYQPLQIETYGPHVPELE

variants of: B1; test: protein stability index of a GFP-peptide fusion (GPS, HEK-293T) (PSI 1-6); higher = more stable; conditions: c terminus: a fixed tail appended;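 further: lentivirally expressed fusions sorted by FACS into six bins by GFP to DsRed ratio, PSI derived from sequencing read proportions per bin multiplied by bin number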
protein stability index overview
Write no unit; give the number alone.

See these solved cases before continuing.
• P10D = 4.33
• E24Y = 1.39
• E7G = 3.53

Note down protein stability index recorded for L1S 5.15

Give protein stability index for the following variant: T15E 4.43

Write down protein stability index measured for item E14V 1.82

Give me measured protein stability index, please, for this variant: L23W 2.84

Provide protein stability index value for the following variant: I13P 5.08

Complete the entry with protein stability index for T15D 4.73

Read off the recorded protein stability index for Y8M 4.71

Look up and report measured protein stability index for this entry: E24M 2.14

# return recorded protein stability index for entry I13L 4.51

Please supply the value of reported protein stability index for the item T15L 1.82

Answer with reported protein stability index of P18Y 2.97

Specify measured protein stability index for L5N . 4.81

Entry E3L needs its protein stability index filled in; supply it. 2

Note protein stability index for the variant shown: T15F 1.75

// fetch protein stability index given entry E7D 3.92

Fill in protein stability index for record L23M 3.2
